// provenance: paper PMC5901408

Target: ZmEPSPS (Zea mays, UniProt A0A1D6NVZ6, P168A/T164I)
Sequence (A0A1D6NVZ6 63-506 T164I/P168A): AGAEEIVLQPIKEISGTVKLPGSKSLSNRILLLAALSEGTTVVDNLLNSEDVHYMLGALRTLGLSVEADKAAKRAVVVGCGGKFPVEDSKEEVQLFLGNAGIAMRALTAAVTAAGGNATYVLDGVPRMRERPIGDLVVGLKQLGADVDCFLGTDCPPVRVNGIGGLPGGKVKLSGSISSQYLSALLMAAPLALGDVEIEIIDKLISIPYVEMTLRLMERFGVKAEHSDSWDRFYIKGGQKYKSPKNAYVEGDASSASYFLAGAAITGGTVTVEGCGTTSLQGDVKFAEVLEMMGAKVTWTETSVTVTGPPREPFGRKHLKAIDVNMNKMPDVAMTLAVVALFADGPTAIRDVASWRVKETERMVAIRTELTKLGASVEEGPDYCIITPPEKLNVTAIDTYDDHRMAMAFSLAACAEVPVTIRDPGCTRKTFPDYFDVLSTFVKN
Experiment: EPSPS enzyme activity assay, glyphosate titration
pIC50: −log10 of the molar value.
PARAMETER MEASURED: pIC50

[
  {
    "COMPOUND": "O=C(O)CNCP(=O)(O)O [glyphosate]",
    "PARAMETER MEASURED": "pIC50",
    "READOUT NUMBER": 1.71
  }
]
